# measurement protocol: Critical aggregation concentration (CAC) by Thioflavin T fluorescence
# Assay type: physicochemical
# condition notes: ThT fluorescence probe (5 × 10^–4 wt % ThT), aqueous solution pH 8, 25 °C, λex 440 nm, emission 487 nm, breakpoint of I/I0 versus concentration
Non-standard residues stand in square brackets, D forms with d. Residues, ends and D or L forms follow the SMILES beside them. *: point of attachment. Palmitoyl = CCCCCCCCCCCCCCCC(=O)*
reported endpoint: CAC (critical aggregation concentration) (wt %)
Give the number; wt % is assumed, so skip it.

Example entries and their recorded answers appear below.
1. CCCCCCCCCCCCCCCC(=O)N[C@@H](Cc1c[nH]c2ccccc12)C(=O)N[C@@H](CCCCN)C(=O)N[C@@H](CCCCN)C(N)=O [P2] (Palmitoyl-Trp-Lys-Lys-NH2)
0.026
2. CCCCCCCCCCCCCCCC(=O)N[C@@H](Cc1c[nH]c2ccccc12)C(=O)N[C@H](CCCCN)C(=O)N[C@H](CCCCN)C(N)=O [P2D] (Palmitoyl-Trp-[dK]-[dK]-NH2)
0.026
3. CCCCCCCCCCCCCCCC(=O)N[C@@H](Cc1ccc(O)cc1)C(=O)N[C@H](CCCCN)C(=O)N[C@H](CCCCN)C(N)=O [P1D] (Palmitoyl-Tyr-[dK]-[dK]-NH2)
0.034

Then this compound:
**Query** Identify the reported CAC (critical aggregation concentration) for the following entry. CCCCCCCCCCCCCCCC(=O)N[C@@H](Cc1ccc(O)cc1)C(=O)N[C@@H](CCCCN)C(=O)N[C@@H](CCCCN)C(N)=O [P1] (Palmitoyl-Tyr-Lys-Lys-NH2)
**Result** 0.040

---

Below: a set of entries, each annotated with reported MBC E. coli.
# Tested on: Escherichia coli K12
# Format: cell-based
# condition notes: K12, 18 h
Non-standard residues stand in square brackets, D forms with d. Residues, ends and D or L forms follow the SMILES beside them. *: point of attachment. Palmitoyl = CCCCCCCCCCCCCCCC(=O)*
Give the number; µg/mL is assumed, so skip it.

**Query** Identify the reported MBC E. coli for the following entry. CCCCCCCCCCCCCCCC(=O)N[C@@H](Cc1c[nH]c2ccccc12)C(=O)N[C@@H](CCCCN)C(=O)N[C@@H](CCCCN)C(N)=O [P2] (Palmitoyl-Trp-Lys-Lys-NH2)
**Result** 250

**Query** Identify the reported MBC E. coli for the following entry. CCCCCCCCCCCCCCCC(=O)N[C@@H](Cc1c[nH]c2ccccc12)C(=O)N[C@H](CCCCN)C(=O)N[C@H](CCCCN)C(N)=O [P2D] (Palmitoyl-Trp-[dK]-[dK]-NH2)
**Result** 62.5

**Query** Identify the reported MBC E. coli for the following entry. CCCCCCCCCCCCCCCC(=O)N[C@@H](Cc1ccc(O)cc1)C(=O)N[C@@H](CCCCN)C(=O)N[C@@H](CCCCN)C(N)=O [P1] (Palmitoyl-Tyr-Lys-Lys-NH2)
**Result** 62.5

**Query** Identify the reported MBC E. coli for the following entry. CCCCCCCCCCCCCCCC(=O)N[C@@H](Cc1ccc(O)cc1)C(=O)N[C@H](CCCCN)C(=O)N[C@H](CCCCN)C(N)=O [P1D] (Palmitoyl-Tyr-[dK]-[dK]-NH2)
**Result** 62.5
